Consider the following compounds; for each one, report its pIC50.
target: Tyrosine-protein kinase BTK (Mus musculus); test: Inhibition of BTK in C57Bl/6 mouse splenocyte assessed as reduction in anti-IgM-induced CD69 expression incubated for 1 hr followed anti-IgM stimulation and measured after overnight by flow cytometry analysis
Sequence (P35991 whole entry): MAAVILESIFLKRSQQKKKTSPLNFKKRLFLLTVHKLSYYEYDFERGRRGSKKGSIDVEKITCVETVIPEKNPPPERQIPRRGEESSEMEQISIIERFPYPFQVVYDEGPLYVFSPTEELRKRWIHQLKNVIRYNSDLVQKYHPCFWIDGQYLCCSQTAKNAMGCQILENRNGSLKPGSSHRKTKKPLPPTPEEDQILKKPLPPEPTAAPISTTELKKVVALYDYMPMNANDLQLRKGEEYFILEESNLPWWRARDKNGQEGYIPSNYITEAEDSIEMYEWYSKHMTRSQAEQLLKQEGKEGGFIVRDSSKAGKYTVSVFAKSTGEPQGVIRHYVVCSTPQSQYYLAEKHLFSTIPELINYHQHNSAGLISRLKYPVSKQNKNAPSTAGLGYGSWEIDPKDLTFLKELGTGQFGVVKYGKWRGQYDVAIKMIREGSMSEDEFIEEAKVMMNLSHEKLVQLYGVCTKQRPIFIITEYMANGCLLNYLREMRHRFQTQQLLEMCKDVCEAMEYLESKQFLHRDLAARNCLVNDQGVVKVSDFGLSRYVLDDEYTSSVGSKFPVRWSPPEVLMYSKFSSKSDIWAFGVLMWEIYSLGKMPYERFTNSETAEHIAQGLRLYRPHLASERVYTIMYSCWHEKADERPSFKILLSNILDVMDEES
// pIC50 here means minus log10 of the molar concentration (mol/L)

Given C=CC(=O)N1CCC[C@@H](NC(=O)c2sc3nccc4c3c2NC(=O)N4c2ccc(Oc3ccccc3)cc2C)C1 (stereo in doubt; 16) , state its recorded pIC50.
6.40

# iterate: C=CC(=O)N1CCC[C@@H](NC(=O)c2sc3nccc4c3c2NC(=O)N4c2ccc(Oc3ccccc3)cc2Cl)C1
7.89

Request: C=CC(=O)N1CC[C@H](NC(=O)c2sc3nccc4c3c2NC(=O)N4c2ccc(Oc3ccccc3)cc2C)C1
7.52
